# Tested on: BT-549 breast
# procedure_text: NCI-60 one-dose screen, 48 h
# conditions: 10 µM
# Experimental: Growth inhibition of the BT-549 human tumor cell line is measured as a screen for anti-cancer activity. Cells are grown in 96 well plates and exposed to the test compound for 48 hours. Compounds are tested at a single concentration, which is 10^-5 M for most compounds. The reported endpoint is percent growth (GI% or GIPRCNT), where numbers from 0 - 100% represent growth inhibition, and numbers from -100% - 0 represent cell death. For example, a value of 40 represents 60% growth inhibition. […]
This is part of a sample that, as a whole, favours compounds with a hit. Of some 83,000 tested, about 20% had one in any assay. The source made the active and inactive calls. How the source made its calls: active means growth percent below 10; inactive means the rest.
Returns: one label drawn from active, inactive

structure | qualitative_label
COc1cccc(Cn2c(-c3nonc3N)nc3ccccc32)c1 | inactive
COc1cc(/C=C2\Oc3cc(OCC(=O)c4ccccc4)ccc3C2=O)cc(OC)c1OC | inactive
N#CCCN1C/C(=C/c2ccc(Br)cc2)C(=O)/C(=C/c2ccc(Br)cc2)C1 | active
COc1ccc(-c2nc3sc(C4CC4)nn3c2/C=C2/C(=O)Nc3ccc(OC)cc32)cc1 | inactive
Cc1cc(N(CCCNc2ccnc3cc(Cl)ccc23)Cc2cccs2)nc(Cl)n1 | inactive

Task: Assay result, entry c1ccc(CNc2ncnc3scc(-c4cccs4)c23)nc1 — outcome?
Result: inactive

Task: Short answer needed: outcome of this test for O=C(Nc1ccc(CN2CCc3nc4cc(O)c(O)cc4cc32)cc1)c1ccc(Cl)c(Cl)c1 ?
Result: inactive

---

// reported growth per item
# System: PC-3 prostate
# procedure_text: NCI-60 one-dose screen, 48 h (100 = growth as untreated, 0 = no growth, -100 = all killed)
# conditions: 10 µM
This is part of a sample that, as a whole, favours compounds with a hit. Of some 83,000 tested, about 20% had one in any assay. Active and inactive are the calls of the source. The calls were made as follows: active = growth percent below 10; inactive = the rest.

Task: Recall the recorded growth for CCOC(=O)CNC(=O)CCCCSc1ncnc2nc[nH]c12 with PC-3 prostate and state it.
Result: 91% (inactive)

Task: What growth appears in the records for this compound with PC-3 prostate? CSc1cc(SC)ncn1
Result: 91% (inactive)

Task: // map Nc1ccc2cc(S(=O)(=O)O)cc(O)c2c1N=Nc1ccc(F)cc1 to recorded growth (system: PC-3 prostate)
Result: 91.5% (inactive)

---

# Test system: UACC-62 melanoma
# procedure_text: NCI-60 one-dose screen, 48 h
# conditions: 10 µM
About 83,000 compounds went through this panel and 20% of them were active in at least one assay; those are over-represented in the sample as a whole. The source made the active and inactive calls. The calls were made as follows: active = growth percent below 10; inactive = the rest.
Outcomes you can answer with include only these: true (1) (active), false (0) (inactive)

compound | qualitative_label
COc1ccc(-c2nn(-c3cccc(NC(=O)c4ccc(N5CCOCC5)c(C(F)(F)F)c4)c3)cc2-c2ccncc2)cc1Cl | false (0)
CC/C(=C(/c1ccc(OCCN(C)C)cc1)c1ccc(OC(=O)CCCCC(=O)c2c(C)[nH]c(/C=C3\N=C(c4ccc[nH]4)C=C3OC)c2C)cc1)c1ccccc1 | false (0)
Clc1ccccc1N=Cc1ccc2c(c1)OCO2 | false (0)
Cc1ccc(C(=O)N2C/C(=C/c3ccc(F)cc3)C(=O)/C(=C/c3ccc(F)cc3)C2)cc1 | false (0)

Task: GET /call?item= CC(C)(C#N)Nc1ccccc1 returns the recorded outcome of this test.
Result: false (0)

Task: Would you mind telling me which call this test gave COc1ccc(-c2nn(-c3cccc(NC(=O)Nc4ccccc4)c3)cc2-c2ccncc2)cc1Cl ?
Result: false (0)

Task: // return assay outcome for CC(=O)N(C)c1ccc(Nc2ccc(Nc3ccc(N(C)C(C)=O)cc3)c3c2C(=O)c2ccccc2C3=O)cc1
Result: false (0)

Task: Hi, do you know how CC(C)=CCc1cc(O)cc2c1OC(C=C(C)C)C1=C2C(=O)C2=C(NCCS2(=O)=O)C1=O (stereo not drawn) came out in this test?
Result: true (1)

Task: What did the test return for COc1ccc2c(c1)sc1nc(-c3ccccc3)c(-c3ccsc3)n12 ?
Result: false (0)

Task: Query: recorded result category for Cc1ccc(NC(=O)Nc2nc3ccccc3s2)cc1NC(=O)Nc1nc2ccccc2s1 in this test
Result: false (0)

Task: What did this assay record as the result for CCOC(=O)N1C/C(=C/c2ccc(OC)cc2)C(=O)/C(=C/c2ccc(OC)cc2)C1 ?
Result: false (0)

Task: Assay result, entry COc1ccc(/C=C/C(C)=N/OCC(=O)O)cc1 — outcome?
Result: false (0)

Task: Returns: the outcome recorded for COc1cc(/C=C/C(=O)c2ccc(Cl)cc2)ccc1OS(=O)(=O)c1ccc(C)cc1 in this assay.
Result: false (0)

---

# System: CAKI-1 renal
# procedure_text: NCI-60 one-dose screen, 48 h
# conditions: 10 µM
Compounds without any hit were thinned out: in the full panel of roughly 83,000, 20% have a hit. Activity calls are given as the source filed them. Rule for the calls: active = growth percent below 10; inactive = the rest.
Your answer must be one of the following: true (1) (active), false (0) (inactive)

For orientation, consider the following solved cases.
compound | qualitative_label
C#Cc1ccc(-n2c(/C=C/c3ccc(O)cc3)nc3ncccc3c2=O)cc1 | false (0)
CN1CC[C@@H](c2c(O)cc(O)c3c(=O)cc(-c4ccccc4Cl)oc23)[C@@H](O)C1 | true (1)
Clc1ccc(-c2cn(-c3ccccc3)c(-c3ccccc3)n2)c(Cl)c1 | true (1)
C#Cc1ccc(-n2c(/C=C/c3ccc4ccccc4c3)nc3ncccc3c2=O)cc1 | false (0)
COc1ccc(S(=O)(=O)Nc2c(/C=C\c3cc(OC)c(OC)c(OC)c3)ccc(OC)c2O)cc1 | false (0)

Task: Hi team, can someone confirm the assay call for CCN(CC)CCOc1nc2cc(OC)c(OC)cc2c2c1-c1ccc(OC)cc1C2=O ?
Result: false (0)

Task: Answer briefly: the call reported for CCOCCOCCOCCOCCOCCOCCOCCOCCOCCO (tested in a mixture with another compound) in this assay.
Result: false (0)

---

# Test system: MOLT-4 leukemia
# procedure_text: NCI-60 one-dose screen, 48 h
# conditions: 10 µM
This is part of a sample that, as a whole, favours compounds with a hit. Of some 83,000 tested, about 20% had one in any assay. Calls of active or inactive are those of the source. How the source made its calls: active means growth percent below 10; inactive means the rest.
Hello, when you answer, please use one of the following outcomes: true (1) (active), false (0) (inactive)

Solved cases below.
molecule | qualitative_label
NC(=S)N=Nc1c(O)c2ccccc2c2ccccc12 | false (0)
Cc1cc(N(CCCNc2ccnc3cc(Cl)ccc23)Cc2ccc3c(c2)OCO3)nc(N2CCCCC2)n1 | true (1)
CCOC(=O)C(CSC(c1ccccc1)(c1ccccc1)c1ccccc1)NC(=O)C(CSC(c1ccccc1)(c1ccccc1)c1ccccc1)NC(c1ccccc1)(c1ccccc1)c1ccccc1 (stereo not drawn) | false (0)

Task: Just curious, what result did O=C(CCCCC[P+](c1ccccc1)(c1ccccc1)c1ccccc1)NC(COC(=O)C(Cl)Cl)(COC(=O)C(Cl)Cl)COC(=O)C(Cl)Cl get here?
Result: false (0)

Task: Record request — test call for COc1ccc2c(c1)O/C(=C\c1ccc([N+](=O)[O-])o1)C2=O
Result: true (1)

Task: How did this test come out for N=C(N)c1ccc(-c2ccc(-c3ccco3)o2)cc1 ?
Result: false (0)

Task: Hi team, can someone confirm the assay call for COC(=O)C1(C)Cc2cc(OC(C)=O)c(OC(C)=O)cc2N1 (stereo not drawn) ?
Result: false (0)

Task: Short answer needed: outcome of this test for COc1ccc(Cl)cc1C(=O)Nc1nc2ccc(Cl)cc2s1 ?
Result: false (0)

Task: Fill in: this test's call for CCCCOc1ccc(NC(=O)Nc2nnc(C)s2)cc1 is ___
Result: false (0)

Task: Status in this test for CCOC(=O)CCC(NC(=O)c1ccc(N)cc1)C(=O)OCC (stereo not drawn) ?
Result: false (0)

Task: # lookup: test call for CC(C)(Cl)CCC1=C(Cl)C(=O)c2ccccc2C1=O
Result: true (1)

Task: Which outcome did this test record for the molecule O=C(CNC(=O)OCc1ccccc1)NCC(=O)Oc1ccc([N+](=O)[O-])cc1 ?
Result: false (0)

Task: // return assay outcome for COc1ccc(/C=C2/CN(C(=O)c3ccccc3F)C/C(=C\c3ccc(OC)cc3)C2=O)cc1
Result: false (0)

---

Here, each record is paired with measured growth data.
# Tested on: OVCAR-8 ovarian
# procedure_text: NCI-60 one-dose screen, 48 h (100 = growth as untreated, 0 = no growth, -100 = all killed)
# conditions: 10 µM
The panel holds about 83,000 compounds, 20% with a hit somewhere; the sample as a whole holds those more often.
Field format: number, assumed %, no unit text.

compound | output_unit | experimental_result
O=C(CC(NC(=O)OCc1ccccc1)C(=O)OCc1ccccc1)OCc1ccccc1 (stereo unspecified) | % | 99
Clc1ccc(-c2cn(-c3ccccc3)c(-c3ccccc3)n2)c(Cl)c1 | % | 9.55
CSC1=NCCCC1 | % | 106
CCN(CC)CCCC(C)Nc1nc(-c2ccc(OC)cc2)nc2cc(Cl)ccc12 (stereo unspecified) | % | 76.1
COc1ccc(-c2nc(-c3nc4cc(Cl)c(F)cc4[nH]3)c3ccccn23)cc1 | % | 40.5

Task: Using the record for Cc1ccc(-c2n[nH]c(=O)c3noc(-c4ccc(C)cc4)c23)cc1 , report its growth.
Result: 43.3

Task: Fill in the blank: the reported growth of O=C(Nc1cccc(-n2cc(-c3ccncc3)c(-c3ccc(O)c(Cl)c3)n2)c1)Nc1cccc(C(F)(F)F)c1 is ____.
Result: -49.9

Task: For the compound shown here, O=C(O)CCCCSc1ncnc2nc[nH]c12 , give the reported growth.
Result: 98.3

Task: Fill in: growth of CCOC(=O)N1C/C(=C/c2ccc(OC)cc2)C(=O)/C(=C/c2ccc(OC)cc2)C1 is ___
Result: 19.6

Task: I would be grateful if you could share the reported growth for COc1ccc(-c2nc(-c3nc4cc(Cl)c(Cl)cc4[nH]3)c3ccccn23)cc1 .
Result: 31.6

Task: Report growth for CSc1nn(-c2ccccc2)c2ncnc(Oc3ccccc3)c12 please.
Result: 99
